biological target: h-GABA-A α5β3γ2 (Homo sapiens (Human), UniProt P18507+P31644); assay: Two-electrode voltage clamp electrophysiology in Xenopus oocytes expressing GABAA receptors, modulation of GABA EC20 current; assay type: cell-based; settings: Table 2; reference compounds, GABAA α5β3γ2 overexpressing oocytes
Sequence (P31644 32-462): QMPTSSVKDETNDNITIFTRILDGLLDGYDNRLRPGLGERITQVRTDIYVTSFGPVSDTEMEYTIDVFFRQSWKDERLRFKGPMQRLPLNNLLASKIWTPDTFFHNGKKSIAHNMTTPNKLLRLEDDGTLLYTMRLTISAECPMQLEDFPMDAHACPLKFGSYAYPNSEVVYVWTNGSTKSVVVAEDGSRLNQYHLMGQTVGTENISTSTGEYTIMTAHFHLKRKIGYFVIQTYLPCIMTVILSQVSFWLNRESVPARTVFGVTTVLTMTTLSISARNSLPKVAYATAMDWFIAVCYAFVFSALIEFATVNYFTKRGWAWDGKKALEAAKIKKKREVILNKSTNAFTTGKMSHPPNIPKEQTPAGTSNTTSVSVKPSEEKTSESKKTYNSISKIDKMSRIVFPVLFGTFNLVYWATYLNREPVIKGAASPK
Sequence (P28472 26-473 partner): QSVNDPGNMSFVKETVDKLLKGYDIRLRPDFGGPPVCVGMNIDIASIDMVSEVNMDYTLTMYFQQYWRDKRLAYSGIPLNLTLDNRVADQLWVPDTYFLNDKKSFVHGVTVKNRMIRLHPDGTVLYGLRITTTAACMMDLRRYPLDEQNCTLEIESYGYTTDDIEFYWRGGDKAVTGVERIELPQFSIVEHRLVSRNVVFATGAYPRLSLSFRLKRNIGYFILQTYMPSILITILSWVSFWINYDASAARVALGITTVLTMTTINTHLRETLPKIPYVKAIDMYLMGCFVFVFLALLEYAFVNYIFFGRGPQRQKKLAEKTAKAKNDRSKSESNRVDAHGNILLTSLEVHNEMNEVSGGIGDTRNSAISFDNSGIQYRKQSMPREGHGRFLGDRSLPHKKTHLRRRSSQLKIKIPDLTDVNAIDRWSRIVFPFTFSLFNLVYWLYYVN
Sequence (P18507 40-475): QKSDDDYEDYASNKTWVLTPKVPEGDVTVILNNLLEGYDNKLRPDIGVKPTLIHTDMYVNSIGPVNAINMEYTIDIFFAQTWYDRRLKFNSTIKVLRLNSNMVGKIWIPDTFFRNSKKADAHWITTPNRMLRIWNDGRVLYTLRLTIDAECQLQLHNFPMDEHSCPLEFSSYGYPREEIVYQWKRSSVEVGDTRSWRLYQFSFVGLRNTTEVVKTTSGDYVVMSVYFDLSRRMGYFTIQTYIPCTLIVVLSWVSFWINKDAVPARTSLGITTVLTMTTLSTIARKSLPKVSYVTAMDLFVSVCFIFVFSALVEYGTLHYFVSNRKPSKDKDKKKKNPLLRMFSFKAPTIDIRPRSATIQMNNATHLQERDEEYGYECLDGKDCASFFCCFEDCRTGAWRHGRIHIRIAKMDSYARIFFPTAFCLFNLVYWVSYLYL
Readout Type: Fold increase h-GABA-A α5β3γ2 oocyte

• Cc1onc(-c2cccnc2)c1COc1ccc(C(=O)NC2CCOCC2)cn1 [RO-159, reference compound] = 0.88
• Cc1ccc(-c2noc(C)c2COc2ccc(C(=O)NC3CCOCC3)cn2)cc1 [RO-251, reference compound] = 0.82
• Cc1onc(-c2ccc(Cl)cn2)c1COc1ccc(C(=O)NC2CCOCC2)cn1 [RO-301, reference compound] = 0.82
• Cc1onc(-c2cccnc2)c1COc1ccc(C(=O)NC2CCOCC2)nn1 [RE-A, reference compound] = 0.97
• Cc1onc(-c2ccccn2)c1COc1ccc(C(=O)NC2CCOCC2)cn1 [RO-272, reference compound] = 0.68
• Cc1onc(-c2ccccn2)c1COc1ccc(C(=O)NC2CCOCC2)nn1 [RO-094, reference compound] = 0.82

Origin of the recorded values: patent US11091471B2
